# log10 of Kd listing for each entry below
# Measurement target: RSV prefusion F (preF), subtype B (respiratory syncytial virus, subtype B)
# Assay: BLI, IgG
Experimental endpoint: log10 of Kd (log10 of the value in nM)

INSERT INTO assay_data (binder, value) VALUES
  ('ADI-14591 (antibody, V domains shown, also called Ab 120) VH: QVQLVQSGAEVKKPGESLRISCTGSGYTFTNYWISWVRQMPGKGLEWMGRIDPTDSYTNYSPSFQGHVTISADKSISTAYLQSSSLKASDTATYYCARHRRLVPAAMSRGYYGMDVWGQGTTVTVSS VL: EIVMTQSPSSLSASVGDRATITCRASQSISSYLNWYQQKPGKAPKLLIYAASNLQSGAPSRFSGSGSGTDFTLTISSLQPEDFATYFCQQTYSTPYTFGQGTKVEIK', -0.26),
  ('ADI-20968 (antibody, V domains shown) VH: QVQLQQWGAGLLKPSETLSLTCAMYGGSFSDDYWSWIRQPPGKGLEWIGEVNHGGSTNYNTSLKSRVTISADTSKKQFSLKLRSVTAADTAVYFCARGWRYCNATTCYSKAFDIWGQGTMVTVSS VL: DIQMTQSPSSLSASVGDRVTITCQASQDIDIYLIWYQQKPGRAPKLLIYDASNLKTGVPSRFSGSGSGTEFTFTINNLQPEDFATYYCQQFHDLPLTFGGGTKLEIK', -0.90),
  ('ADI-21011 (antibody, V domains shown) VH: QVQLQESGPGLVKPSETLSLSCTASGDSISDYYWSWIRQPPGKGLEWIGFVSDTWGTNYSPSLTSRVAISLDTSRSQVSLRLRSVTAADTAVYYCVRTHLYDRGGYYLYYFDYWGQGTLVTVSS VL: DIRMTQSPPSLSASVGDRVTITCRASQRIASYLNWYQQKPDTAPKLLIYAASNLQTGVPSRFSGSGSGTDFTLTISSLQPEDFATYYCQQSYSTPYTFGQGTKLEIK', -0.01),
  ('ADI-20962 (antibody, V domains shown) VH: QVQLVQSGAEVKKPGASVKVSCKASGYTFSHYGLSWVRQAPGQGLEWMGWISAYNHNTNYAQKFQGRVTITTDTSTSTAYLEMRSLRSDDTAVYYCAREPPSDTAAGTGDYWGQGTLVTVSS VL: DIVMTQSPLSLSVTLGQPASISCRSSQSLVYSDGNTYLTWFQQRPGQSPRRLIYKVSNRDSGVPDRFSGSGSGTDFTLKISRVEAEDVGVYYCMQGTQWPRTFGQGTKVDIK', -0.33),
  ('ADI-14400 (antibody, V domains shown, also called Ab 66) VH: QVQLVQSGGGVVQPGRSLRLSSAASGFTFSSYAMHWVRQAPGKGLEWVAVISHDGSKYYADSVKGRFTISRDNSKSTLNLQMNSLRPEDTAVYYCARGGDVRLYDDSNGYHYDTYYFDYWGQGTLVTVSS VL: EIVLTQSPSSLSASVGDRVTITCRASQGIRNDLGWYQQKPGKAPKLLIYAASTLQSGVPSRFSGSGSGTDFTLTISSLQPEDFATYYCLQDYNYPLTFGGGTKVEIK', -0.35),
  ('ADI-14401 (antibody, V domains shown, also called Ab 67) VH: QVQLVQSGGGLVKPGGSLRLSCAASGFTFSSYSMHWVRQAPGKGLEWVSSISASSSYLNYADSVKGRFTISRDNAKKSLYLQLNTLRADDTAVYYCAREDHDSGTYYLNWFDPWGQGTLVTVSS VL: QSVVTQPPSVSGAPGQRVTISCTGSSSNIGAGYDVHWYQQFPGTGPKLLIYGNSHRPSGVPDRFSGSKSGPSASLAITGLQAEDEADYYCQSYDSSLSGYVFGTGTKVTVL', 0.34),
  ('ADI-21012 (antibody, V domains shown) VH: QVQLVQSGPAVVKPTQTLTLTCSFSGFSLSTSRMSVSWIRQPPGKALEWLARIDWDGDKYYSTSLKSRLTISKDTSKNQVVLTMTNMDPVDTATYYCARGSYYVSSGYYLNYFDYWGQGTLVTVSS VL: DIRMTQSPSSLSASVGDRVTITCRTSQTIASYLNWYQQKPGKAPNLLIYAASILQTGVPSRFSGSGSGTDFTLTISSLQPEDFATYYCQQSYGTPQTFGQGTKVEIK', 0.28),
  ('ADI-14598 (antibody, V domains shown) VH: QVQLVQSGAEVKKPGSSVKVSCKASGGTFSSYAIYWVRQAPGQGLECMGGIIPIFGSANYAQKFQGRVTITADESTSTAYMELSSLRSEDTAVYYCATDSLKTTYYYGSSGYFRDHVWGQGTTVTVSS VL: ETTLTQSPSSLSASVGDRVTITCRASQGISNYLAWYQQKPGKVPKLLIFAASTLQSGVPSRFSGSGSGTDFTLTISSLQPEDVATYYCQNFNSVLSFTFGPGTKVDIK', 0.85),
  ('ADI-21033 (antibody, V domains shown) VH: QVQLVQSGAEVRKPGDSLKISCKFSENIFTTYYWTGWVRQMPGRGLEWMGIIFPGDSDTRYSPSFQGHVTISVDKSIATAFLQWSSLKASDSAMYYCARAKYEGSFDMWGQGTMVTVSS VL: DIQVTQSPSSLSASVGDRVSITCQASQDIRNRLNWYQQKPGKAPKLLIYDASILETGVPSRFSGSGSGTDFTFSISSLQPEDFATYYCQQYDSFSLFTFGPGTKVEIK', 0.15),
  ('ADI-20994 (antibody, V domains shown) VH: QVQLVQSGAEVKKPGASVKVSCKASGYTFSSNVIGWVRQAPGQGLEWMGWISTNNGNTKYGQKFQGRVTMTTDPSTSTAYMELRSLRSDDTAFYYCARESLGMGGFYFDYWGQGTLVTVSS VL: QPVLTQPPSVSVAPGQTARITCGGDNIGSKSVHWYQQKPGQAPVLVVYDDSDRPSGIPERFSGSNSGNTASLTISRVEAGDEADYCCQVWDSGSDLWVFG', -0.96);
